Assay Summary: Acute toxicity, oral
Condition Context: rat, in vivo, single administration, fasted male Sprague Dawley rats, after 14 days, p = 0.05, Litchfield and Wilcoxon
Structures can show the parent of a compound that is named as a salt.
Consider the following molecules and their measured LD50 at 336 h readings.

Molecule: CC(=O)C(c1ccccc1)N1CCN(CCOc2ccccc2)CC1 (stereo not drawn)
LD50 at 336 h, mg/kg: 800
//
Molecule: CCC(O)C(c1ccccc1)N1CCN(CCOc2ccccc2C)CC1 (stereo not drawn) [Example 4, dihydrochloride]
LD50 at 336 h, mg/kg: 700
//
Molecule: CC(O)C(c1ccccc1)N1CCN(CCOc2ccccc2)CC1 (stereo not drawn)
LD50 at 336 h, mg/kg: 250
